Details: human gut metagenome, 24 h, 2 µM; note: call rule not given here
MEASURE: Bacterial Biotransformation

Solved entries (count: 4):
{"columns": ["COMPOUND", "Bacterial Biotransformation"],
 "data": [
  ["CN(C(=O)CN(CCO)CC(=O)N(C)C(C)(C)Cc1ccccc1)C(C)(C)Cc1ccccc1", "Compound metabolized"],
  ["O=c1n(CCCN2CCN(c3cccc(Cl)c3)CC2)nc2ccccn12", "Compound NOT metabolized"],
  ["CCCCCOC(=O)Nc1nc(=O)n([C@@H]2O[C@H](C)[C@@H](O)[C@H]2O)cc1F", "Compound metabolized"],
  ["C=CCc1ccccc1OCC(O)CNC(C)C (stereo not given)", "Compound NOT metabolized"]
]}

Field: next compound
(Q) Give its Bacterial Biotransformation value. Item: COc1c2occc2cc2ccc(=O)oc12
(A) Compound metabolized

====

Experiment: The drug is tested on Z-005 corresponding to metagenome with ENA study accession number: PRJEB37062 and ENA sample accession number: ERS12561805 for biotransformation under anaerobic condition. The drug concentrations were measured over 9 timepoints collected between 0 and 24 hours of incubation by liquid-chromatography-coupled mass spectrometry (LC–MS)
Conditions: 2 µM
MEASURE: Bacterial Biotransformation

Solved entries (count: 5):
{"columns": ["COMPOUND", "Bacterial Biotransformation"],
 "data": [
  ["CC(CN1c2ccccc2Sc2ccccc21)N(C)C (stereo not drawn)", "Compound NOT metabolized"],
  ["CC(C)c1c(C(=O)Nc2ccccc2)c(-c2ccccc2)c(-c2ccc(F)cc2)n1CC[C@@H](O)C[C@@H](O)CC(=O)O", "Compound metabolized"],
  ["Cc1ccc(-c2nc3ccc(C)cn3c2CC(=O)N(C)C)cc1", "Compound NOT metabolized"],
  ["CCC1(c2ccc(N)cc2)CCC(=O)NC1=O (stereo not drawn) [AMINOGLUTETHIMIDE]", "Compound NOT metabolized"],
  ["CCN(CC)CCOCCOC(=O)C1(c2ccccc2)CCCC1.O=C(O)CC(O)(CC(=O)O)C(=O)O [CARBETAPENTANE CITRATE]", "Compound metabolized"]
]}

(Q) Give its Bacterial Biotransformation value. Item: C=CCN1CC[C@]23c4c5ccc(O)c4O[C@H]2C(=O)CC[C@@]3(O)[C@H]1C5
(A) Compound NOT metabolized

(Q) Give its Bacterial Biotransformation value. Item: CN(C)CC(c1ccc(O)cc1)C1(O)CCCCC1.O=C(O)CCC(=O)O (stereo not drawn) [DESVENLAFAXINE SUCCINATE]
(A) Compound NOT metabolized

(Q) Give its Bacterial Biotransformation value. Item: O=C1[C@H](CC[C@H](O)c2ccc(F)cc2)[C@@H](c2ccc(O)cc2)N1c1ccc(F)cc1
(A) Compound NOT metabolized

====

Conditions: human gut metagenome, 24 h, 2 µM

{"columns": ["MOLECULE", "Bacterial Biotransformation"],
 "data": [
  ["CCOC(=O)[C@H](CCc1ccccc1)N[C@H]1CCc2ccccc2N(CC(=O)O)C1=O [BENAZEPRIL]", "Compound NOT metabolized"],
  ["CCCCCOC(=O)Nc1nc(=O)n([C@@H]2O[C@H](C)[C@@H](O)[C@H]2O)cc1F [CAPECITABINE]", "Compound NOT metabolized"],
  ["NC(CO)(CO)CO.O=C(c1ccccc1)c1ccc2n1CCC2C(=O)O (centres undefined) [KETOROLAC TROMETHAMINE]", "Compound NOT metabolized"]
]}

====

Details: human gut metagenome, 24 h, 2 µM
MEASURE: Bacterial Biotransformation

Solved entries (count: 10):
{"columns": ["COMPOUND", "Bacterial Biotransformation"],
 "data": [
  ["CN1C(=O)CCS(=O)(=O)C1c1ccc(Cl)cc1 (stereo unspecified) [CHLORMEZANONE]", "Compound metabolized"],
  ["COc1cc2c(c(OC)c1OC)-c1ccc(OC)c(=O)cc1[C@@H](NC(C)=O)CC2 [COLCHICINE]", "Compound metabolized"],
  ["CS(=O)(=O)O.OC(CCN1CCCCC1)(c1ccccc1)c1ccccc1 [PRIDINOL METHANESULFONATE]", "Compound NOT metabolized"],
  ["CN1CCN(C(=O)O[C@H]2c3nccnc3C(=O)N2c2ccc(Cl)cn2)CC1 [ESZOPICLONE]", "Compound NOT metabolized"],
  ["CN(C(=O)CN(CCO)CC(=O)N(C)C(C)(C)Cc1ccccc1)C(C)(C)Cc1ccccc1 [OXETHAZAINE]", "Compound metabolized"],
  ["COc1c2occc2cc2ccc(=O)oc12 [METHOXSALEN]", "Compound metabolized"],
  ["CC(C)NCC(O)COc1ccc(CCOCC2CC2)cc1 (stereo unspecified) [BETAXOLOL]", "Compound NOT metabolized"],
  ["CN1CCN(C2=Nc3cc(Cl)ccc3Nc3ccccc32)CC1 [CLOZAPINE]", "Compound NOT metabolized"],
  ["Cc1ccc(-c2cc(C(F)(F)F)nn2-c2ccc(S(N)(=O)=O)cc2)cc1 [CELECOXIB]", "Compound metabolized"],
  ["Cc1ccc(-c2nc3ccc(C)cn3c2CC(=O)N(C)C)cc1 [ZOLPIDEM]", "Compound metabolized"]
]}

Field: next compound
(Q) Give its Bacterial Biotransformation value. Item: O=C(O)CCc1nc(-c2ccccc2)c(-c2ccccc2)o1 [OXAPROZIN]
(A) Compound metabolized

====

Assay: The drug is tested on Z-016 corresponding to mouse gut metagenome with ENA study accession number: PRJEB37062 and ENA sample accession number: ERS12561815 for biotransformation under anaerobic condition. The drug concentrations were measured over 9 timepoints collected between 0 and 24 hours of incubation by liquid-chromatography-coupled mass spectrometry (LC–MS)
Conditions: 2 µM

{"columns": ["COMPOUND", "Bacterial Biotransformation"],
 "data": [
  ["CO[C@]12C[C@@H](COC(=O)c3cncc(Br)c3)CN(C)[C@@H]1Cc1cn(C)c3cccc2c13 [NICERGOLINE]", "Compound metabolized"],
  ["CC(C(=O)O)c1ccc2c(c1)Cc1cccnc1O2 (stereo not drawn) [PRANOPROFEN]", "Compound metabolized"]
]}

====

Details: human gut metagenome, 24 h, 2 µM
MEASURE: Bacterial Biotransformation

Solved entries (count: 7):
{"columns": ["COMPOUND", "MEASURE", "DATA VALUE"],
 "data": [
  ["CC(C)(C)NC[C@H](O)COc1ccccc1C1CCCC1.CC(C)(C)NC[C@H](O)COc1ccccc1C1CCCC1.O=S(=O)(O)O [PENBUTOLOL SULFATE]", "Bacterial Biotransformation", "Compound metabolized"],
  ["COCCc1ccc(OCC(O)CNC(C)C)cc1.COCCc1ccc(OCC(O)CNC(C)C)cc1.O=C(O)C(O)C(O)C(=O)O (stereo not drawn) [METOPROLOL TARTRATE]", "Bacterial Biotransformation", "Compound NOT metabolized"],
  ["OC(Cn1cncn1)(Cn1cncn1)c1ccc(F)cc1F [FLUCONAZOLE]", "Bacterial Biotransformation", "Compound metabolized"],
  ["CC(C)c1nc(CN(C)C(=O)N[C@H](C(=O)N[C@@H](Cc2ccccc2)C[C@H](O)[C@H](Cc2ccccc2)NC(=O)OCc2cncs2)C(C)C)cs1 [RITONAVIR]", "Bacterial Biotransformation", "Compound metabolized"],
  ["NC(=O)N1c2ccccc2CC(=O)c2ccccc21 [OXCARBAZEPINE]", "Bacterial Biotransformation", "Compound NOT metabolized"],
  ["CS(=O)(=O)O.O.O.O.O=C1Cc2cc(CCN3CCN(c4nsc5ccccc45)CC3)c(Cl)cc2N1 [ZIPRASIDONE MESYLATE]", "Bacterial Biotransformation", "Compound metabolized"],
  ["Nc1c2c(nc3ccccc13)CCCC2 [TACRINE]", "Bacterial Biotransformation", "Compound metabolized"]
]}

Field: next compound
(Q) Give its Bacterial Biotransformation value. Item: O=C(O)CCc1nc(-c2ccccc2)c(-c2ccccc2)o1 [OXAPROZIN]
(A) Compound metabolized

====

Test: The drug is tested on WLS-006 corresponding to human gut metagenome with ENA study accession number: PRJEB37062 and ENA sample accession number: ERS12561741 for biotransformation under anaerobic condition. The drug concentrations were measured over 9 timepoints collected between 0 and 24 hours of incubation by liquid-chromatography-coupled mass spectrometry (LC–MS)
Conditions: 2 µM
MEASURE: Bacterial Biotransformation

Solved entries (count: 5):
{"columns": ["MOLECULE", "DATA VALUE"],
 "data": [
  ["NS(=O)(=O)c1cc2c(cc1Cl)N=C(CSCc1ccccc1)NS2(=O)=O [BENZTHIAZIDE]", "Compound NOT metabolized"],
  ["CN(C(=O)CN(CCO)CC(=O)N(C)C(C)(C)Cc1ccccc1)C(C)(C)Cc1ccccc1", "Compound metabolized"],
  ["CS(=O)(=O)O.O.O.O.O=C1Cc2cc(CCN3CCN(c4nsc5ccccc45)CC3)c(Cl)cc2N1 [ZIPRASIDONE MESYLATE]", "Compound metabolized"],
  ["CC(C)NCC(O)COc1ccc(COCCOC(C)C)cc1.CC(C)NCC(O)COc1ccc(COCCOC(C)C)cc1.O=C(O)/C=C/C(=O)O (configuration not stated) [BISOPROLOL FUMARATE]", "Compound metabolized"],
  ["CN1CCc2c(c3ccccc3n2Cc2ccccc2)C1.CN1CCc2c(c3ccccc3n2Cc2ccccc2)C1.O=S(=O)(O)c1cccc2c(S(=O)(=O)O)cccc12", "Compound NOT metabolized"]
]}

(Q) Give its Bacterial Biotransformation value. Item: Cc1ccnc2c1NC(=O)c1cccnc1N2C1CC1
(A) Compound NOT metabolized

(Q) Give its Bacterial Biotransformation value. Item: Cc1ccc(/C(=C\CN2CCCC2)c2ccccn2)cc1
(A) Compound metabolized

(Q) Give its Bacterial Biotransformation value. Item: CC(C)(C#N)c1cc(Cn2cncn2)cc(C(C)(C)C#N)c1
(A) Compound NOT metabolized

(Q) Give its Bacterial Biotransformation value. Item: CN(C)CCC=C1c2ccccc2C=Cc2ccccc21
(A) Compound metabolized

(Q) Give its Bacterial Biotransformation value. Item: NC12CC3CC(CC(C3)C1)C2
(A) Compound NOT metabolized

(Q) Give its Bacterial Biotransformation value. Item: COc1ccccc1OCC(O)CN1CCN(CC(=O)Nc2c(C)cccc2C)CC1 (configuration not stated)
(A) Compound NOT metabolized

(Q) Give its Bacterial Biotransformation value. Item: Cc1cn([C@H]2C[C@H](N=[N+]=[N-])[C@@H](CO)O2)c(=O)[nH]c1=O
(A) Compound metabolized

(Q) Give its Bacterial Biotransformation value. Item: CC(C)N(CCC(C(N)=O)(c1ccccc1)c1ccccn1)C(C)C.O=P(O)(O)O (configuration not stated) [DISOPYRAMIDE PHOSPHATE]
(A) Compound metabolized

(Q) Give its Bacterial Biotransformation value. Item: CC(O)(CS(=O)(=O)c1ccc(F)cc1)C(=O)Nc1ccc(C#N)c(C(F)(F)F)c1 (configuration not stated) [BICALUTAMIDE]
(A) Compound NOT metabolized

Values from ChEMBL document CHEMBL5724914
